test_conditions: in water, 298.2 K
assay_readout: solubility (mole fraction)

                       substance_smiles               assay_readout  result
0  COC(=O)[C@@H](N)Cc1c[nH]c2ccccc12.Cl  solubility (mole fraction)  0.0125

* * *

test_conditions: in isobutanol, 308.2 K
assay_readout: solubility (mole fraction)

In [3]: df
Out[3]:
                       substance_smiles               assay_readout  numeric_value
0  COC(=O)[C@@H](N)Cc1c[nH]c2ccccc12.Cl  solubility (mole fraction)        0.00245

* * *

test_conditions: in isopropanol, 313.2 K
assay_readout: solubility (mole fraction)

In [3]: df
Out[3]:
                       substance_smiles               assay_readout  numeric_value
0  COC(=O)[C@@H](N)Cc1c[nH]c2ccccc12.Cl  solubility (mole fraction)         0.0022
